Reported IC50 values for a set of molecules
# subject-of-test: human recombinant Jnk2 (Homo sapiens)
# Sequence (P45984 whole entry): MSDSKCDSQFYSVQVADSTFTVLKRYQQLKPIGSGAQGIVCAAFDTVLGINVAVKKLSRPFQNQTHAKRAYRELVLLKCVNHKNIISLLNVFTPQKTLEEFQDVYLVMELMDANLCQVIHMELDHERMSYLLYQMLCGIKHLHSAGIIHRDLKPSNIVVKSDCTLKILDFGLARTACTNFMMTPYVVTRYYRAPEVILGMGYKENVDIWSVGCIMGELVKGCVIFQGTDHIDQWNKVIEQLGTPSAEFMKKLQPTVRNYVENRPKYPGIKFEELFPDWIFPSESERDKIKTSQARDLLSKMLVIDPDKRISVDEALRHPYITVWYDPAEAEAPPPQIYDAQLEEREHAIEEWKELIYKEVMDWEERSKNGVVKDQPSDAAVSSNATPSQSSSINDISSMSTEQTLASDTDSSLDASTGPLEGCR
# procedure-details: JNK enzymatic assay (33P incorporation into peptide)
# particulars: JNK2 kinase IC50 class, Table 1

{"item-smiles": "CCOC(=O)Nc1ccc(C)c(Nc2nncc3cc(C(=O)OCC)c(C)n23)c1", "IC50": "< 1000 nM"}
{"item-smiles": "CCOC(=O)c1cc2cnnc(Nc3cc(C(=O)NC4CC4)ccc3OC)n2c1C", "IC50": "1000 to 10000 nM"}
{"item-smiles": "Cc1ccc(C(=O)NC2CC2)cc1Nc1nncc2cc(C(=O)NCc3ccccc3)c(C)n12", "IC50": "< 1000 nM"}
{"item-smiles": "CCOC(=O)c1cc2cnnc(Nc3ccc(C(=O)OC)cc3)n2c1C", "IC50": "1000 to 10000 nM"}
{"item-smiles": "CCOC(=O)c1cc2cnnc(Nc3cc(-c4ncco4)ccc3C)n2c1C", "IC50": "1000 to 10000 nM"}
{"item-smiles": "CCOC(=O)c1cc2cnnc(Nc3cc(NC(C)=O)ccc3C)n2c1C", "IC50": "1000 to 10000 nM"}
{"item-smiles": "CCNC(=O)c1ccc(C)c(Nc2nncc3cc(C(=O)OCC)c(C)n23)c1", "IC50": "1000 to 10000 nM"}
{"item-smiles": "Cc1ccc(C(=O)NC2CC2)cc1Nc1nncc2cc(C(=O)NC3CC3)c(C)n12", "IC50": "1000 to 10000 nM"}
{"item-smiles": "CCOC(=O)c1cc2cnnc(Nc3ccc(Cl)cc3)n2c1C", "IC50": "1000 to 10000 nM"}
{"item-smiles": "CCOC(=O)c1cc2cnnc(Nc3cc(C(=O)N4CCOCC4)ccc3C)n2c1C", "IC50": "> 10000 nM"}
{"item-smiles": "CCOC(=O)c1cc2cnnc(Nc3ccccc3C)n2c1C", "IC50": "1000 to 10000 nM"}
{"item-smiles": "CNC(=O)c1cc2cnnc(Nc3cc(C(=O)NC4CC4)ccc3C)n2c1C", "IC50": "< 1000 nM"}
{"item-smiles": "CCOC(=O)c1cc2cnnc(Nc3cccc(C(=O)O)c3)n2c1C", "IC50": "1000 to 10000 nM"}
{"item-smiles": "CCOC(=O)c1cc2cnnc(Nc3cc(NC(=O)OC(C)C)ccc3C)n2c1C", "IC50": "1000 to 10000 nM"}
